assay: NCI Yeast Anticancer Drug Screen. Data for the sgs1 mgt1 strain (AID 161);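 note: 0% = growth of cultures given vehicle only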; details: S. cerevisiae sgs1 mgt1 strain, at 50.0 µM, active compounds read high
About 79,000 compounds went through this panel and 15% of them were active in at least one assay; those are over-represented in the sample as a whole.
TEST_READOUT: growth inhibition (%)
Please reply with the bare figure in % and do not write the unit itself.

Data request: Given c1ccc(CCN2CCCCCCCC2)nc1 , state its recorded growth inhibition.
Data returned: -4.35

Data request: Need growth inhibition, item Nc1nc2c(ncn2C2OCC(O)C(O)C2O)c(=O)[nH]1 (stereo unspecified)
Data returned: -13.8

Data request: Which growth inhibition is reported for this molecule? Cc1cn(C2CC(O)C(CO)O2)c(=O)nc1N1CCCC1 (stereo unspecified)
Data returned: -12.9

Data request: Entry Cc1cc(=O)[nH]c(Nc2nc3cc(C)c(C)cc3[nH]2)n1 has what growth inhibition?
Data returned: 2.05

Data request: Quick check: growth inhibition of O=C(/C=C/CBr)NC(Cc1ccccc1)C(=O)O (stereo unspecified) ?
Data returned: -18.1

Data request: Can you look up the measured growth inhibition of COC(=O)c1nc(N)nc(C(=O)OC)c1C(=O)c1cc(Cl)ccc1Cl for me?
Data returned: -1.25

Data request: Look up growth inhibition for this molecule: Cc1cc([N+](=O)[O-])c2ncccc2c1
Data returned: -2.7

Data request: Look up growth inhibition for this molecule: O=C(O)C1(C(=O)O)CCCCC1.[NH-]CC1(C[NH-])CCCCC1.[Pt+2]
Data returned: 27.8

Data request: Quick check: growth inhibition of C=CCC[P+](c1ccccc1)(c1ccccc1)c1ccccc1 ?
Data returned: 28.2

Data request: Please give the measured growth inhibition for this molecule: COC(=O)C1=C(C(=O)OC)SC(=C2C3=C(SC(C(=O)OC)=C(C(=O)OC)S3)c3ccccc32)S1
Data returned: 21.9

Data request: Please look up its growth inhibition: COc1ccccc1C(=O)N/N=C/c1ccccc1Cl
Data returned: 32.4

* * *

Assign growth inhibition to each entry below.
Assay: NCI Yeast Anticancer Drug Screen. Data for the bub3 strain (AID 167)
Settings: S. cerevisiae bub3 mutant strain, at 50.0 µM, active compounds read high
Description: Growth inhibition of yeast strains with defined genetic alterations is measured as a screen for potential anti-cancer activity. Selected strains with alterations in DNA damage repair or cell cycle control were exposed to compounds and growth inhibition was measured relative to vehicle treated controls. The strain used in this assay is bub3
The panel holds about 79,000 compounds, 15% with a hit somewhere; the sample as a whole holds those more often.
Form entry: value (%) — number only.

Data request: Need growth inhibition of Cc1ccc(/C=C/c2ccc3ccccc3c2)cc1 , thanks.
Data returned: -4.8

Data request: Could you share which growth inhibition value was measured for Cn1cc(S(=O)(=O)NC(=O)Nc2ccc(Cl)cc2)c2ccccc21 ?
Data returned: -20.1

Data request: Entry under review: O=C(Nc1ccccc1O)c1ccc([N+](=O)[O-])cc1 . Reported growth inhibition?
Data returned: 20.4

Data request: Fill in the blank: the reported growth inhibition of Cc1cc(C)c2c(=O)c3c(oc2c1)O[C@@](C)(CO)C[C@@H]3c1ccccc1 is ____.
Data returned: 12

Data request: Recorded growth inhibition of C=C(Cl)COc1ccc(C(=O)c2ccccc2)cc1 , please.
Data returned: -7.25

Data request: What measured growth inhibition goes with O=C1C(c2ccccc2)=C(c2ccccc2)C(c2ccc(Cc3ccc(C4=C(c5ccccc5)C(=O)C(c5ccccc5)=C4c4ccccc4)cc3)cc2)=C1c1ccccc1 ?
Data returned: 15.1

Data request: # growth inhibition lookup, item CCOC(=O)N1C(=O)c2ccccc2C1=O
Data returned: -13.3

Data request: Return reported growth inhibition; argument: CCN(CC)CCC(=O)N1C/C(=C/c2ccccc2)C(=O)/C(=C\c2ccccc2)C1
Data returned: 13.2

Data request: // returns reported growth inhibition for input O=N[O-].O=N[O-].[Co].[NH-]CC[N-]CC[N-]CC[NH-]
Data returned: 19.6

Data request: Please give the measured growth inhibition for this molecule: S=C(NCCCN1Cc2ccccc2C1)Nc1ccccc1
Data returned: 4.85

Data request: Report growth inhibition for NC(=NCc1ccncc1)N/N=C\c1ccnc2ccccc12 please.
Data returned: -9.5

Data request: # lookup: growth inhibition of CC1=C(C(=O)N(C)c2ccc(Cl)c(C(=O)OC(C)C)c2)SCCO1
Data returned: -11.8

Data request: I'd like to know its growth inhibition. The molecule in question is CC(=O)c1cc(C)c(O)c(C)c1
Data returned: -6.75

Data request: For the molecule O=C(Nc1ccccc1)C(c1ccccc1)N(Nc1ccccc1Cl)c1ccccc1Cl (stereo not drawn) , what growth inhibition is on record?
Data returned: -5

Data request: Tell me the measured growth inhibition of CC(=O)C(CCC(=O)O)(CCC(=O)O)c1ccccc1 , please.
Data returned: 13.7

Data request: If you can, please state the reported growth inhibition value of Cc1cc(C)c2c(c1)CC(C)(C)C(=O)OC2=O .
Data returned: -10.3

Data request: Given the entry CCN(CC)CC(=O)N1CCc2c([nH]c3ccccc23)C1c1cccnc1 (stereo not drawn) , report its measured growth inhibition.
Data returned: -35.5

Data request: Can you look up the measured growth inhibition of CCCCNC(=O)OCCN(C)CCOC(=O)NCCCC for me?
Data returned: 6.2

Data request: May I ask what growth inhibition has been recorded for C=CCC1(C(C)C(O)c2cc(OC)c(OC)c(OC)c2)CC(O)C=CC12OCCO2 (stereo not drawn) ?
Data returned: 16.2

Data request: Suppose we examine the molecule COc1ccc(C(=O)C(CO)Oc2ccccc2OC)cc1OC (stereo not drawn) ; what growth inhibition value has been reported?
Data returned: -13.5

Data request: Name the recorded growth inhibition for CCC1C(C#N)(C#N)C1(C#N)C#N .
Data returned: 1.45

Data request: Please look up its growth inhibition: Cc1c(Cc2c(C)n(C)n(-c3ccccc3)c2=O)c(=O)n(-c2ccccc2)n1C
Data returned: 9.9

Data request: Fill in the blank: the reported growth inhibition of O=P(O)(Cc1ccccc1)OCC1(O)OCC(O)C(O)C1O (stereo not drawn) is ____.
Data returned: -19.8

* * *

test: NCI Yeast Anticancer Drug Screen. Data for the cln2 rad14 strain (AID 165);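 note: 0% = growth equal to vehicle treated cultures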; settings: S. cerevisiae cln2 rad14 strain, at 50.0 µM, active compounds read high
About 79,000 compounds went through this panel and 15% of them were active in at least one assay; those are over-represented in the sample as a whole.
TEST_READOUT: growth inhibition (%)
Supply the numeric figure in %, leaving out any unit text.

Data request: Query (compound): COc1cc2c(c(Cl)c1O)C(=O)OC2 ; field requested: growth inhibition
Data returned: 3.55

Data request: Would you mind telling me what growth inhibition value was observed for O=C(c1ccccc1)C1CCCCC1 ?
Data returned: 6.45

Data request: # get_value(readout='growth inhibition', item= CC(=O)OC1C(COS(=O)(=O)c2ccc(C)cc2)OCOC(COS(=O)(=O)c2ccc(C)cc2)C1OC(C)=O (configuration not stated) )
Data returned: -26.2

Data request: # growth inhibition lookup, item Nc1c(S(=O)(=O)O)cc(S(=O)(=O)O)c2ccc(N=Nc3ccccc3)c(O)c12
Data returned: -3.05

Data request: Please report the recorded growth inhibition for CCOC(=O)C(C)(Br)C(Br)c1ccc([N+](=O)[O-])cc1 (configuration not stated) .
Data returned: 42.7

Data request: Can you look up the measured growth inhibition of CCC1CN2N=Cc3ccccc3C2=N1 (configuration not stated) for me?
Data returned: -43.5

Data request: For the compound NC(c1ccccc1)(c1ccccc1)c1ccccc1 , what growth inhibition is on record?
Data returned: -9.8

Data request: For c1ccc(C(=C2CCCCCCCCCCCCC2)c2ccccc2)cc1 , what is its reported growth inhibition?
Data returned: -2

Data request: Item under review: O=S(=O)(/N=C1C=C/C(=N\S(=O)(=O)c2ccccc2)C2C/1C2(c1ccccc1)c1ccccc1)c1ccccc1 (configuration not stated) . Reported growth inhibition?
Data returned: -30.6

Data request: Give its growth inhibition value. Item: C#CC(C)(C)OC(=O)Nc1cccc(Cl)c1
Data returned: -8.35

Data request: GET /values?readout=growth inhibition&item= O=C1C2CN(Cc3ccccc3)CC2C(=O)N1c1ccccc1 (configuration not stated)
Data returned: -51.8

Data request: Value lookup for growth inhibition; key = c1ccc2c(c1)C1CC3N=NC1C23 (configuration not stated)
Data returned: -20.1

Data request: Can you look up the measured growth inhibition of COc1cc(C2CC(C)(N3CCCC3)Oc3cc4c(cc32)OCO4)cc(OC)c1OC (configuration not stated) for me?
Data returned: -47.4

Data request: Looking for the measured growth inhibition of CC(C)CCCC(C)C1CCC2C3C=C(C(=O)O)C(C)(CCC(=O)O)C3CCC12C (configuration not stated) , can you help?
Data returned: 7.7

Data request: GET /values?readout=growth inhibition&item= O=S(=O)(c1ccccc1)N1CCN(S(=O)(=O)c2ccccc2)c2ccccc21
Data returned: 3.9

Data request: Quick check: growth inhibition of CCCCCCCCCCCCS(=O)(=O)O (tested in a mixture with another compound) ?
Data returned: -12.4

Data request: Name the reported growth inhibition value associated with the compound CC(=S)NC(O)C(=O)c1ccccc1 (configuration not stated)
Data returned: 8.6

Data request: What value of growth inhibition has been recorded for this entry: COc1ccc(C2N(C(C#N)c3ccccc3OC)CCCN2C(C#N)c2ccccc2OC)c(OC)c1 (configuration not stated)
Data returned: 25.4

Data request: Can you look up the measured growth inhibition of O=C1C=C(c2ccccc2)C(=O)C(c2ccccc2)=C1c1ccccc1 for me?
Data returned: 80

Data request: Can you look up the measured growth inhibition of COc1cc(/C=C/c2ccnc3ccccc23)ccc1N(C)C for me?
Data returned: -32.3

Data request: Field request: growth inhibition | item: CC(=O)OC(COC(c1ccccc1)(c1ccccc1)c1ccccc1)C(OC(C)=O)C(COC(c1ccccc1)(c1ccccc1)c1ccccc1)OC(C)=O (configuration not stated)
Data returned: -18.8

Data request: Suppose we examine the compound O=S(=O)(O)c1ccc(OCCCCCCCCCCOc2ccc(S(=O)(=O)O)cc2)cc1 ; what growth inhibition value has been reported?
Data returned: 0.7
